The origin of these recorded values is the NIST ThermoML archive (doi:10.1016/j.fluid.2018.07.028).

assay: activity coefficient (dimensionless); of the first substance listed, at infinite dilution; xn = mol fraction of the nth substance listed; details: 388.15 K; 101.33 kPa; Liquid; Chromatography; x1 = 0
Property: activity coefficient; scope: individual compounds
endpoint_label: activity coefficient

In [3]: df
Out[3]:
                                    compound        endpoint_label  reported
 0  C#CCCCCCC [1-octyne] + CCCC[P+](CCCC)(CCCC)CCCC.O=S(=O)([N-]S(=O)(=O)C(F)(F)F)C(F)(F)F  activity coefficient         3
 1  CC#N [acetonitrile] + CCCC[P+](CCCC)(CCCC)CCCC.O=S(=O)([N-]S(=O)(=O)C(F)(F)F)C(F)(F)F  activity coefficient     0.635
 2  CCOC(C)=O [ethyl acetate] + CCCC[P+](CCCC)(CCCC)CCCC.O=S(=O)([N-]S(=O)(=O)C(F)(F)F)C(F)(F)F  activity coefficient     0.939
 3  CCC(=O)CC [pentan-3-one] + CCCC[P+](CCCC)(CCCC)CCCC.O=S(=O)([N-]S(=O)(=O)C(F)(F)F)C(F)(F)F  activity coefficient     0.721
 4  C1CCCCC1 [cyclohexane] + CCCC[P+](CCCC)(CCCC)CCCC.O=S(=O)([N-]S(=O)(=O)C(F)(F)F)C(F)(F)F  activity coefficient      2.86
 5  C=Cc1ccccc1 [styrene] + CCCC[P+](CCCC)(CCCC)CCCC.O=S(=O)([N-]S(=O)(=O)C(F)(F)F)C(F)(F)F  activity coefficient      1.14
 6  C=C(C)c1ccccc1 [(1-methylethenyl)benzene] + CCCC[P+](CCCC)(CCCC)CCCC.O=S(=O)([N-]S(=O)(=O)C(F)(F)F)C(F)(F)F  activity coefficient      1.58
 7  COC(C)(C)C [2-methoxy-2-methylpropane] + CCCC[P+](CCCC)(CCCC)CCCC.O=S(=O)([N-]S(=O)(=O)C(F)(F)F)C(F)(F)F  activity coefficient      1.87
 8  CCCCC [pentane] + CCCC[P+](CCCC)(CCCC)CCCC.O=S(=O)([N-]S(=O)(=O)C(F)(F)F)C(F)(F)F  activity coefficient      3.66
 9  C=CCCCCCC [oct-1-ene] + CCCC[P+](CCCC)(CCCC)CCCC.O=S(=O)([N-]S(=O)(=O)C(F)(F)F)C(F)(F)F  activity coefficient      4.96
10  CCC(C)(C)C [2,2-dimethylbutane] + CCCC[P+](CCCC)(CCCC)CCCC.O=S(=O)([N-]S(=O)(=O)C(F)(F)F)C(F)(F)F  activity coefficient      4.05
11  CCCOCCC [dipropyl ether] + CCCC[P+](CCCC)(CCCC)CCCC.O=S(=O)([N-]S(=O)(=O)C(F)(F)F)C(F)(F)F  activity coefficient      2.88
12  CCCC(C)=O [pentan-2-one] + CCCC[P+](CCCC)(CCCC)CCCC.O=S(=O)([N-]S(=O)(=O)C(F)(F)F)C(F)(F)F  activity coefficient     0.714
13  CCC(=O)OC [methyl propanoate] + CCCC[P+](CCCC)(CCCC)CCCC.O=S(=O)([N-]S(=O)(=O)C(F)(F)F)C(F)(F)F  activity coefficient     0.931
14  CO [methanol] + CCCC[P+](CCCC)(CCCC)CCCC.O=S(=O)([N-]S(=O)(=O)C(F)(F)F)C(F)(F)F  activity coefficient      1.14
15  CCCC=O [butanal] + CCCC[P+](CCCC)(CCCC)CCCC.O=S(=O)([N-]S(=O)(=O)C(F)(F)F)C(F)(F)F  activity coefficient     0.758
16  CCO [ethanol] + CCCC[P+](CCCC)(CCCC)CCCC.O=S(=O)([N-]S(=O)(=O)C(F)(F)F)C(F)(F)F  activity coefficient      1.26
17  C1CCCC1 [cyclopentane] + CCCC[P+](CCCC)(CCCC)CCCC.O=S(=O)([N-]S(=O)(=O)C(F)(F)F)C(F)(F)F  activity coefficient      2.38
18  CC(C)O [propan-2-ol] + CCCC[P+](CCCC)(CCCC)CCCC.O=S(=O)([N-]S(=O)(=O)C(F)(F)F)C(F)(F)F  activity coefficient      1.33
19  CCC(C)(C)OC [2-methoxy-2-methylbutane] + CCCC[P+](CCCC)(CCCC)CCCC.O=S(=O)([N-]S(=O)(=O)C(F)(F)F)C(F)(F)F  activity coefficient       2.2
20  CCCO [propan-1-ol] + CCCC[P+](CCCC)(CCCC)CCCC.O=S(=O)([N-]S(=O)(=O)C(F)(F)F)C(F)(F)F  activity coefficient      1.37
21  C=CCCC [1-pentene] + CCCC[P+](CCCC)(CCCC)CCCC.O=S(=O)([N-]S(=O)(=O)C(F)(F)F)C(F)(F)F  activity coefficient      2.74
22  C#CCCC [1-pentyne] + CCCC[P+](CCCC)(CCCC)CCCC.O=S(=O)([N-]S(=O)(=O)C(F)(F)F)C(F)(F)F  activity coefficient       1.7
23  CCCCCCC [heptane] + CCCC[P+](CCCC)(CCCC)CCCC.O=S(=O)([N-]S(=O)(=O)C(F)(F)F)C(F)(F)F  activity coefficient      5.35

* * *

Property: activity coefficient; scope: individual compounds
assay: activity coefficient (dimensionless); of the first substance listed, at infinite dilution; xn = mol fraction of the nth substance listed; conditions: 388.15 K; 101.33 kPa; Liquid; Chromatography; x1 = 0
endpoint_label: activity coefficient

>>> df
                                    compound        endpoint_label  reported
 0  C=COC(C)=O [vinyl acetate] + CCCC[P+](CCCC)(CCCC)CCCC.O=S(=O)([N-]S(=O)(=O)C(F)(F)F)C(F)(F)F  activity coefficient      1.07
 1  C1=CCCCC1 [cyclohexene] + CCCC[P+](CCCC)(CCCC)CCCC.O=S(=O)([N-]S(=O)(=O)C(F)(F)F)C(F)(F)F  activity coefficient      2.32
 2  CCCCCCCC [octane] + CCCC[P+](CCCC)(CCCC)CCCC.O=S(=O)([N-]S(=O)(=O)C(F)(F)F)C(F)(F)F  activity coefficient       6.5
 3  CCC(C)O (centres undefined) [butan-2-ol] + CCCC[P+](CCCC)(CCCC)CCCC.O=S(=O)([N-]S(=O)(=O)C(F)(F)F)C(F)(F)F  activity coefficient      1.43
 4  C=CCCCC [hex-1-ene] + CCCC[P+](CCCC)(CCCC)CCCC.O=S(=O)([N-]S(=O)(=O)C(F)(F)F)C(F)(F)F  activity coefficient      3.28
 5  Cc1cccc(C)c1 [1,3-dimethylbenzene] + CCCC[P+](CCCC)(CCCC)CCCC.O=S(=O)([N-]S(=O)(=O)C(F)(F)F)C(F)(F)F  activity coefficient      1.68
 6  CCCCCO [pentan-1-ol] + CCCC[P+](CCCC)(CCCC)CCCC.O=S(=O)([N-]S(=O)(=O)C(F)(F)F)C(F)(F)F  activity coefficient      1.67
 7  CC(C)(C)O [2-methylpropan-2-ol] + CCCC[P+](CCCC)(CCCC)CCCC.O=S(=O)([N-]S(=O)(=O)C(F)(F)F)C(F)(F)F  activity coefficient      1.37
 8  CCCCCC [hexane] + CCCC[P+](CCCC)(CCCC)CCCC.O=S(=O)([N-]S(=O)(=O)C(F)(F)F)C(F)(F)F  activity coefficient      4.46
 9  CCC(C)CC [3-methylpentane] + CCCC[P+](CCCC)(CCCC)CCCC.O=S(=O)([N-]S(=O)(=O)C(F)(F)F)C(F)(F)F  activity coefficient      4.09
10  C#CCCCC [1-hexyne] + CCCC[P+](CCCC)(CCCC)CCCC.O=S(=O)([N-]S(=O)(=O)C(F)(F)F)C(F)(F)F  activity coefficient      2.06
11  C1CCCCCC1 [cycloheptane] + CCCC[P+](CCCC)(CCCC)CCCC.O=S(=O)([N-]S(=O)(=O)C(F)(F)F)C(F)(F)F  activity coefficient      3.39
12  c1ccsc1 [thiophene] + CCCC[P+](CCCC)(CCCC)CCCC.O=S(=O)([N-]S(=O)(=O)C(F)(F)F)C(F)(F)F  activity coefficient     0.872
13  CC(C)OC(C)C [diisopropyl ether] + CCCC[P+](CCCC)(CCCC)CCCC.O=S(=O)([N-]S(=O)(=O)C(F)(F)F)C(F)(F)F  activity coefficient      3.05

* * *

Property: activity coefficient; scope: individual molecules
assay: activity coefficient (dimensionless); of the first substance listed, at infinite dilution; xn = mol fraction of the nth substance listed; settings: 398.15 K; 101.33 kPa; Liquid; Chromatography; x1 = 0
endpoint_label: activity coefficient

>>> print(df.to_string())
                                   molecule        endpoint_label  reported
0  CCC(=O)CC [pentan-3-one] + CCCC[P+](CCCC)(CCCC)CCCC.O=S(=O)([N-]S(=O)(=O)C(F)(F)F)C(F)(F)F  activity coefficient      0.75
1  CC1CCCCC1 [methylcyclohexane] + CCCC[P+](CCCC)(CCCC)CCCC.O=S(=O)([N-]S(=O)(=O)C(F)(F)F)C(F)(F)F  activity coefficient      3.47
2  CC#N [acetonitrile] + CCCC[P+](CCCC)(CCCC)CCCC.O=S(=O)([N-]S(=O)(=O)C(F)(F)F)C(F)(F)F  activity coefficient     0.645
3  CCC(C)O (stereo not given) [butan-2-ol] + CCCC[P+](CCCC)(CCCC)CCCC.O=S(=O)([N-]S(=O)(=O)C(F)(F)F)C(F)(F)F  activity coefficient       1.4
4  CCC[N+](=O)[O-] [1-nitropropane] + CCCC[P+](CCCC)(CCCC)CCCC.O=S(=O)([N-]S(=O)(=O)C(F)(F)F)C(F)(F)F  activity coefficient     0.754
5  CCCCCC [hexane] + CCCC[P+](CCCC)(CCCC)CCCC.O=S(=O)([N-]S(=O)(=O)C(F)(F)F)C(F)(F)F  activity coefficient      4.49
6  C=COC(C)=O [vinyl acetate] + CCCC[P+](CCCC)(CCCC)CCCC.O=S(=O)([N-]S(=O)(=O)C(F)(F)F)C(F)(F)F  activity coefficient       1.1
7  CCC(C)CC [3-methylpentane] + CCCC[P+](CCCC)(CCCC)CCCC.O=S(=O)([N-]S(=O)(=O)C(F)(F)F)C(F)(F)F  activity coefficient      4.11
8  C=Cc1ccccc1 [styrene] + CCCC[P+](CCCC)(CCCC)CCCC.O=S(=O)([N-]S(=O)(=O)C(F)(F)F)C(F)(F)F  activity coefficient      1.18
9  C1COCCO1 [1,4-dioxane] + CCCC[P+](CCCC)(CCCC)CCCC.O=S(=O)([N-]S(=O)(=O)C(F)(F)F)C(F)(F)F  activity coefficient     0.911
